Test: qHTS Assay for Spectroscopic Profiling in A350 Spectral Region
Conditions: Compound autofluorescence, 340/450 nm, Alexa 350 dye-equivalents
The whole screen tested about 59,000 compounds, of which about 6,500 (11%) were called active. Not shown: some 15% with an inconclusive outcome. Rule as the data show it: active = max dye-equivalent concentration above about 10 nM; inconclusive = mostly about 1.1 nM to 9.6 nM; inactive = weaker than that. The sample holds actives, similar compounds and a random draw of the others, so the mix is not that of the screen.
Please reply with one of these outcomes: active, inactive

Exercise: For CC(=O)O[C@H]1CC[C@@]2(C)[C@@H](CC[C@H]3[C@H]2CC(=O)[C@]2(C)[C@@H]3C[C@@H](N3CC3)[C@H]2C(C)=O)C1 , which call appears in the assay record?
Key: inactive

Exercise: For CCOC(=O)c1c(-c2ccccc2)oc2ccc(OC(=O)N(C)C)cc12 , which call appears in the assay record?
Key: active

Exercise: For c1csc(CN2CC3(CCNCC3)C2)n1 , which call appears in the assay record?
Key: inactive

Exercise: For NCCc1ccc(S(=O)(=O)F)cc1 , which call appears in the assay record?
Key: inactive

Exercise: For CC(C)CCC1(CCN)C(=O)NC(=O)NC1=O , which call appears in the assay record?
Key: inactive

Exercise: For CN1CCN(C(=O)O[C@@H]2c3nccnc3C(=O)N2c2ccc(Cl)cn2)CC1 , which call appears in the assay record?
Key: inactive

Exercise: For C[C@@]12CC[C@H](O)C[C@@H]1CC[C@@H]1[C@@H]2CC[C@@]2(C)[C@@H](C3=CC(=O)OC3)[C@H](O)C[C@]12O , which call appears in the assay record?
Key: inactive

Exercise: For C[C@H](Br)C(=O)N[C@H](CO)C(=O)O , which call appears in the assay record?
Key: inactive

Exercise: For C[C@H]1CC[C@@]2(NC1)O[C@@H]1C[C@H]3[C@@H]4CC=C5C[C@@H](O)CC[C@]5(C)[C@@H]4CC[C@]3(C)[C@@H]1[C@@H]2C , which call appears in the assay record?
Key: inactive

Exercise: For C[C@@]12CC[C@H]3[C@@H](CC[C@]4(O)C[C@H](O)CC[C@@]34C=O)[C@]1(O)CC[C@@H]2C1=CC(=O)OC1 , which call appears in the assay record?
Key: inactive

Exercise: For COC(=O)COc1cc(C)cc2oc(=O)c3c(c12)CCCC3 , which call appears in the assay record?
Key: inactive

Exercise: For O=C(Nc1cccc(F)c1)N1CC[C@@]2(CCCN(C(=O)Oc3ccccc3)C2)C1 , which call appears in the assay record?
Key: inactive

Exercise: For CC[N+]1(C)CCCC(OC(=O)C(O)(c2ccccc2)c2ccccc2)C1 (stereo not given) , which call appears in the assay record?
Key: inactive

Exercise: For CC(C)(O)[C@H]1[C@H]2OC(=O)[C@@H]1[C@]1(O)C[C@H]3O[C@]34C(=O)O[C@H]2[C@]14C , which call appears in the assay record?
Key: inactive

Exercise: For COc1cc(C[C@H](C)N)c(OC)cc1I , which call appears in the assay record?
Key: inactive

Exercise: For CC(=O)c1c(O)c(C)c(O)c(Cc2c(O)c3c(c(C(=O)/C=C\c4ccccc4)c2O)OC(C)(C)C=C3)c1O , which call appears in the assay record?
Key: inactive

Exercise: For Cc1ccc(S(=O)(=O)O[C@H]2CN3CCC2CC3)cc1 , which call appears in the assay record?
Key: inactive

Exercise: For CC(C)(O)/C=C\C(=O)[C@](C)(O)[C@H]1[C@H](O)C[C@]2(C)[C@@H]3CC=C4[C@@H](C=C(O)C(=O)C4(C)C)[C@]3(C)C(=O)C[C@@]12C , which call appears in the assay record?
Key: inactive

Exercise: For O=C(O)C(=O)Cc1ccc2c(c1)OCO2 , which call appears in the assay record?
Key: inactive

Exercise: For CCCCCCN=C(CC)c1c(O)n(CCCC)c(=O)[nH]c1=O , which call appears in the assay record?
Key: inactive
